target: human VAChT (Homo sapiens (Human), UniProt Q16572); test: VAChT binding, competition against [3H]Vesamicol; details: Table 2; oxalate form; expressed human VAChT; mean ± SEM; read-out: Ki (nM) VAChT
Sequence (Q16572 whole entry): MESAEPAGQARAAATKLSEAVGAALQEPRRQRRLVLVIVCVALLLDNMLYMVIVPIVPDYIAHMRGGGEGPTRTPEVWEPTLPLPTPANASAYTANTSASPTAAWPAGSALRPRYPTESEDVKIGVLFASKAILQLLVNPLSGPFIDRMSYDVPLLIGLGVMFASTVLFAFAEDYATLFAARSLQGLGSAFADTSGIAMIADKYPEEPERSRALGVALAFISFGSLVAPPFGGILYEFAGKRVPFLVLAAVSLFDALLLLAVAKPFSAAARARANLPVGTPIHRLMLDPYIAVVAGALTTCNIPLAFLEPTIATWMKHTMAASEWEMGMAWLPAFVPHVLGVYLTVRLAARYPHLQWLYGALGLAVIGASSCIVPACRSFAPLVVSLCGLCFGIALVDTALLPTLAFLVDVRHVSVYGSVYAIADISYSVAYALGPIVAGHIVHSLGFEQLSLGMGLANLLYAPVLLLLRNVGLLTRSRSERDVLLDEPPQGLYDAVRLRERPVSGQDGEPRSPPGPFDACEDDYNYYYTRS
endpoint name: Ki
Be sure to follow the number with its unit.

Worked examples follow.
So, O=C(c1ccc(SCCCF)cc1)C1CCN([C@@H]2Cc3ccccc3C[C@H]2O)CC1 (single isomer, unassigned) [(+)-9b] ? Its Ki was 19.9 nM

So, O=C(c1ccc(SCCF)cc1)C1CCN([C@@H]2Cc3ccccc3C[C@H]2O)CC1 (single isomer, unassigned) [(+)-9a] ? Its Ki was 11.8 nM

So, CS(=O)(=O)c1ccc(C(=O)C2CCN(C3Cc4ccccc4CC3O)CC2)cc1 (single isomer, unassigned; (-)) [(−)-2] ? Its Ki was 4.1 nM

Provide Ki values for the following items, in order.
1. O=C(c1ccc(SCCCF)cc1)C1CCN(C2Cc3ccccc3CC2O)CC1 (single isomer, unassigned; (-)) [(−)-9b]
2. CSc1ccc(C(=O)C2CCN([C@@H]3Cc4ccccc4C[C@H]3O)CC2)cc1 (single isomer, unassigned) [(+)-3]
3. O=C(c1ccc(SCCF)cc1)C1CCN(C2Cc3ccccc3CC2O)CC1 (single isomer, unassigned; (-)) [(−)-9a]
4. CS(=O)(=O)c1ccc(C(=O)C2CCN([C@@H]3Cc4ccccc4C[C@H]3O)CC2)cc1 (single isomer, unassigned) [(+)-2]
5. CSc1ccc(C(=O)C2CCN(C3Cc4ccccc4CC3O)CC2)cc1 (single isomer, unassigned; (-)) [(−)-3]

A:
1.4 nM
13.8 nM
2.2 nM
193 nM
1.4 nM
